# System: FGR;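 note: KINOMEscan kinase panel screen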
# test_conditions: concentration: 1 μM, replicates: in singlicate; n = 1
measured_property: %Inh (%)
Report the value in % with no unit label.

Sample records with %Inh:
CCC(=O)c1c(-c2ccccc2)c2cc(Cl)ccc2c(=O)n1Cc1ccc(C(=O)O)cc1 ... 0
COc1cc(Nc2nccc(N3CCC(NC(=O)C(C)c4ccc(Cl)cc4)C3)n2)cc(OC)c1OC (stereo not shown) ... 26
CCCC(=O)Nc1n[nH]c2ncc(-c3cccc4ccccc34)cc12 ... 10
COc1cccc(C2=C(Nc3cccc(C(=O)O)c3)C(=O)NC2=O)c1 ... 14

Q) Reported %Inh, compound CN1C(=O)C(Nc2ccccc2)=C(c2ccccc2)C1=O : ____
A) 0

Q) Reported %Inh, compound COc1cccc(C2=C(N(C)c3ccccc3)C(=O)NC2=O)c1 : ____
A) 13

Q) Reported %Inh, compound CCS(=O)(=O)c1ccc(OC)c(Nc2ncc(-c3ccc(F)cc3)o2)c1.Cl : ____
A) 0
